biological target: Phosphatidylinositol 4,5-bisphosphate 3-kinase catalytic subunit alpha isoform (Homo sapiens, UniProt P42336); assay: Inhibition of PI3Kalpha (unknown origin) using diC8 PIP2 as substrate after 80 mins by ADP-glo assay
Sequence (P42336 whole entry, canonical isoform): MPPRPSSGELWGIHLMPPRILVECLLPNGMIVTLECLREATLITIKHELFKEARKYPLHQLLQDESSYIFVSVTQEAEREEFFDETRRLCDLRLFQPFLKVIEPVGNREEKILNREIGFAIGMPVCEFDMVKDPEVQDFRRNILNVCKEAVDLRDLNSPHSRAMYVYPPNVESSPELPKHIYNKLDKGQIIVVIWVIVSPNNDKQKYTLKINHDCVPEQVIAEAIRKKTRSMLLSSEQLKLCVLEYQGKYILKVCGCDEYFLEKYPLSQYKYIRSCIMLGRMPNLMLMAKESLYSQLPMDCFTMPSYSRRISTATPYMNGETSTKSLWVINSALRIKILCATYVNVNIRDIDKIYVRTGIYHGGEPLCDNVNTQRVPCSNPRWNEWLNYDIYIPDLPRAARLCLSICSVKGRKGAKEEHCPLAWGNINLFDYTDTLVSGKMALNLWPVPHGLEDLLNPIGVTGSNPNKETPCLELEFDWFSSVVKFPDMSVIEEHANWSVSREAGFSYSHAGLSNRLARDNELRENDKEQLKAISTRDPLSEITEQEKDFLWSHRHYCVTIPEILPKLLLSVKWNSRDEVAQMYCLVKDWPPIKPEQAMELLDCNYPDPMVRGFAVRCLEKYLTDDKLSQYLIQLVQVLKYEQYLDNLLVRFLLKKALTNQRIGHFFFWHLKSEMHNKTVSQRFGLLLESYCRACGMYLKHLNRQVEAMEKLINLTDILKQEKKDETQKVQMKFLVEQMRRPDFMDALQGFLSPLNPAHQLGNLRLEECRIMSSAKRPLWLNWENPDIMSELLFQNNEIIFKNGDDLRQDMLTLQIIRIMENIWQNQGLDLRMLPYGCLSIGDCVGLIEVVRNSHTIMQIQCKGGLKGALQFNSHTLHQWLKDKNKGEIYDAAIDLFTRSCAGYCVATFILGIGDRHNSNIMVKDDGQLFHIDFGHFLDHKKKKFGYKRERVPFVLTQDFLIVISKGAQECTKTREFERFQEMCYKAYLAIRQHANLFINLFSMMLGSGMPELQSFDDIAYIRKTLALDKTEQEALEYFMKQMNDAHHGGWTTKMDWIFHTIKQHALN
parameter-measured: IC50

compound_string=C=Cc1ccc(-c2ccc3ncnc(Nc4ccc(CC#N)cc4)c3c2)cc1 result="> 10 µM"
